# Test System: NRAS WT (Homo sapiens (Human), UniProt P01111+P62937)
# Sequence (P01111 whole entry): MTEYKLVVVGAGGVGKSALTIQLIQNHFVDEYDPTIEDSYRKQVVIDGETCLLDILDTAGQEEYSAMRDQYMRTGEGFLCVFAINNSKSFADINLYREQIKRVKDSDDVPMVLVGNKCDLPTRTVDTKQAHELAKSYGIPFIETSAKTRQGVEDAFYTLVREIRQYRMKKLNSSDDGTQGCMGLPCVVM
# Sequence (P62937 whole entry): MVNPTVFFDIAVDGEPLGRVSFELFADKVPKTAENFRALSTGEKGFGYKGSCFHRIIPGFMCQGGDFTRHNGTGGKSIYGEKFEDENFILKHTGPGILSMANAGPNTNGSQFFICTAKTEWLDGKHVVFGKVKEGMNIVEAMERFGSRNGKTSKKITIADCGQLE
# Experiment Notes: Ras-Raf (BRAF RBD) disruption / FRET / MOA assay, NRAS WT
# Assay type: biochemical
# Test Settings: read-out: IC50* NRAS WT FRET data
pIC50: −log10 of the molar value.
Parameter pIC50: see the listing below.
Readout Name: pIC50

1) CCn1c(-c2cccnc2[C@H](C)OC)c2c3cc(ccc31)-c1nc(co1)C[C@H](NC(=O)[C@@H](COC1CN(C(=O)C#CC(C)(C)N(C)C)C1)C(C)C)C(=O)N1CCC[C@H](N1)C(=O)OCC(C)(C)C2 (atropisomer, axis not shown) [Example A675]
< 5.00
2) C=C(OC)C(=O)N1CC2(CCN(C(=O)N(C)[C@H](C(=O)N[C@H]3Cc4nc(cs4)-c4ccc5c(c4)c(c(-c4cccnc4[C@H](C)OC)n5CC)CC(C)(C)COC(=O)[C@@H]4CCCN(N4)C3=O)C(C)C)CC2)C1 (atropisomer, axis not shown) [Example A681]
6.00 to 7.00
3) C=CC(=O)N1CC[C@H](C(=O)N(C)[C@H](C(=O)N[C@H]2Cc3cc(O)cc(c3)-c3ccc4c(c3)c(c(-c3cnn5c3[C@@H](OC)CCC5)n4CC)CC(C)(C)COC(=O)[C@@H]3CCCN(N3)C2=O)C(C)C)C1 [Example A300]
7.00 to 8.00
4) C/C=C/C(=O)N1CC2(CCN(C(=O)N(C)[C@H](C(=O)N[C@H]3Cc4nc(cs4)-c4ccc5c(c4)c(c(-c4cccnc4[C@H](C)OC)n5CC)CC(C)(C)COC(=O)[C@@H]4CCCN(N4)C3=O)C(C)C)CC2)C1 (atropisomer, axis not shown) [Example A671]
6.00 to 7.00
